The origin of these recorded values is PubChem BioAssay (NCI).

Below, each entry is listed with its recorded TGI.
# Tested on: SK-OV-3 ovarian
# ASSAY NOTES: NCI tumour cell line growth inhibition, 48 h
Give just the number in µM; leave the unit off.

# MOLECULE, ASSAY SYSTEM, UNIT TEXT, TEST RESULT
records = [
    ("CCOc1cc(-c2nc3ccccn3c2/N=C/c2cc(Br)ccc2O)ccc1O", "SK-OV-3 ovarian", "µM", 92.7),
    ("CC1(CNCc2ccccc2)CC(CCc2ccccc2)N(C(=O)c2ccc([N+](=O)[O-])cc2)C1Cc1ccc(O)cc1 (stereo not given)", "SK-OV-3 ovarian", "µM", 34.6),
    ("CCC[CH2][Sn]([CH2]CCC)([O]C(=O)c1cccnc1SC)[O]C(=O)c1cccnc1SC", "SK-OV-3 ovarian", "µM", 5.83),
    ("O=[N+]([O-])c1ccc(NC(=S)N=Nc2c(O)[nH]c3ccc(Br)cc23)cc1", "SK-OV-3 ovarian", "µM", 28.9),
    ("CC(=O)OC/C=C(/C=C/CNC1CCCCC1)OC(C)=O", "SK-OV-3 ovarian", "µM", 33.8),
]

Kindly consider the entry below.
# lookup: `Nc1c(C(=O)c2ccc(Cl)cc2)[nH]c(NCc2ccccc2)c1C(=S)Nc1ccccc1` on SK-OV-3 ovarian, TGI = 49.8

###

# System: SF-539 CNS
# ASSAY NOTES: NCI tumour cell line growth inhibition, 48 h
Below, each entry is listed with its recorded TGI.

# MOLECULE, TGI
data = [
    ("COc1ccc2c(c1)CN1C(=N2)CSC1c1ccccc1Cl (stereo unspecified)", "32.1 µM"),
    ("CCOC(=O)[C]1([Bi]([CH3])[CH3])N=NC(C(=O)OC)=C1C(=O)OC (stereo unspecified)", "32.3 µM"),
    ("NC(N)=Nc1ncccc1[N+](=O)[O-]", "> 100 µM"),
    ("CC(C)C(=O)NC(=S)Nc1ccc([N+](=O)[O-])cc1C#N", "> 100 µM"),
    ("COc1c(C)c2nc3ccccc3[nH]c2c2c(=O)ccnc12", "> 100 µM"),
]

Kindly consider the entry below.
Value of measured TGI for the entry O=C1CCC2(c3ccc(F)cc3)Nc3cc(Cl)ccc3N12 (stereo unspecified) : > 100 µM

###

# Test system: OVCAR-3 ovarian
# ASSAY NOTES: NCI tumour cell line growth inhibition, 48 h
QUANTITY KIND: TGI (µM)
Give just the number in µM; leave the unit off.

# COMPOUND, ASSAY SYSTEM, TGI (µM)
data = [
    ("CCc1ccc(/C=C\\c2cc(OC)c(OC)c(OC)c2)cc1", "OVCAR-3 ovarian", 0.206),
]

Kindly consider the entry below.
Value of measured TGI for the entry `O=[N+]([O-])c1ccc(NC(=S)N=Nc2c(O)[nH]c3ccc(Br)cc23)cc1` : 21.8

###

Below, each entry is listed with its recorded TGI.
# Test system: RXF 393 renal
# ASSAY NOTES: NCI tumour cell line growth inhibition, 48 h

Recorded results for 6 compounds are shown here.
# COMPOUND, TGI
data = [
    ("CCCCN=C(NC#N)NCCCC", "> 100 µM"),
    ("O=C1CCCCN1CCCCC#Cc1ccccc1C#Cc1ccc([N+](=O)[O-])cc1", "11.1 µM"),
    ("NC1CNC(=O)c2c(Cl)sc(Cl)c21 (stereo not given)", "> 100 µM"),
    ("COc1ccc(Nc2nc3c([nH]2)c(=O)n(C)c(=O)n3C)cc1", "> 10 µM"),
    ("O=C(/N=N/C(=O)OCc1ccccc1)OCc1ccccc1", "> 100 µM"),
    ("CS(=O)(=O)c1ccc([C@H]2O[C@@H](CO)C[C@]2(O)c2ccc(S(C)(=O)=O)cc2)cc1", "> 100 µM"),
]

Value of measured TGI for the entry `O=C(Nc1ccccc1C(=O)NCCCO)/C(=C/c1ccccc1O)NC(=O)c1ccccc1` : > 86.8 µM

Value of measured TGI for the entry `O=[N+]([O-])c1ccc(NC(=S)N=Nc2c(O)[nH]c3ccc(Br)cc23)cc1` : 26.5 µM

###

Below, each entry is listed with its recorded TGI.
# System: OVCAR-5 ovarian
# ASSAY NOTES: NCI tumour cell line growth inhibition, 48 h

Value of measured TGI for the entry CCC(C)c1c(Cl)nc(Cl)nc1Cl (centres undefined) : 33.2 µM

Value of measured TGI for the entry `O=C(Cc1ccccc1)NN1C(=O)/C(=C\c2ccc([N+](=O)[O-])cc2)SC1=Nc1ccccc1` : > 100 µM

Value of measured TGI for the entry `Nc1ccc(S(=O)(=O)Nc2nc3ccccc3nc2N2CCCCC2)cc1` : > 100 µM

Value of measured TGI for the entry COC(=O)C1CC2(c3ccccc3)C(=O)c3ccccc3N2O1 (centres undefined) : > 100 µM

###

# Test system: SF-268 CNS
# ASSAY NOTES: NCI tumour cell line growth inhibition, 48 h; in the data active = GI50 below about 0.43 µM; inactive = the rest
The categories you may choose from are Y (active), N (inactive)

# COMPOUND, CATEGORY
data = [
    ("C=CC(=O)N1CC2(CCN(c3nc(OC4CCN(CCCOC)CC4)nc4c(OCC(F)(F)F)c(-c5c(C)ccc6[nH]ncc56)c(C5CC5)cc34)CC2)C1", "N"),
    ("N#Cc1ccc(O)c(C2=NCC(c3cccc(Oc4ccccc4)c3)O2)c1 (stereo not drawn)", "N"),
    ("Oc1ccc(CN2CCC(N3CCCCC3)CC2)c2cccnc12", "N"),
    ("CC(=O)OC[C@]1(C)C=C2C(=O)[C@](C)(O)C3(CC3)C(C)=C2[C@H]1O", "Y"),
    ("CC[CH2][Sn]([CH2]CC)([O]C(=O)c1cccnc1SC)[O][Sn]([CH2]CC)([CH2]CC)[O]C(=O)c1cccnc1SC", "Y"),
    ("N#Cc1ccc(NC(=O)Nc2ccc(Oc3ccc(NC(=O)Nc4ccc(C#N)cc4)cc3)cc2)cc1", "N"),
    ("COc1ccc(/C(COc2c(-c3ccccc3)oc3ccccc3c2=O)=N\\O)cc1", "N"),
]

Attention now shifts to the item below.
Please let me know the test result on file for `COC(=O)[C@]12CC[C@@H](C)[C@H](C)[C@@H]1C1=CC[C@@H]3[C@@]4(C)C/C(=N\O)[C@H](O)[C@@]5(C)COC(=C45)C[C@@]3(C)[C@]1(C)CC2` .
N

###

# Test system: SK-MEL-5 melanoma
# ASSAY NOTES: NCI tumour cell line growth inhibition, 48 h
QUANTITY KIND: log10 of TGI (log10 of the value in µM)
Each number you see is log10 of TGI, and the unit inside the log is µM.

Recorded results for 6 molecules are shown here.
# MOLECULE, log10 of TGI
measured = [
    ("CCCn1cnc2c(SCc3ccccc3Cl)nc(N)nc21", 1.28),
    ("COc1ccc(/C(COc2c(-c3ccccc3)oc3ccccc3c2=O)=N\\O)cc1", 1.30),
    ("Oc1ccc2ccccc2c1N=Nc1nccs1", 1.19),
    ("COCc1nc2c(OC)cc(-c3nc4ccc(N5CCN(C)CC5)cc4[nH]3)c(OC)c2[nH]1", 1.73),
    ("Nc1cc(N)c2nc(-c3ccccc3)c(Nc3ccc(Cl)c(Cl)c3)nc2c1", 1.41),
    ("O=C1Nc2c(C(F)(F)F)cccc2[C@]1(c1ccc(O)cc1)c1ccc(OC(F)(F)F)cc1", 1.39),
]

Value of measured log10 of TGI for the entry COc1cc(C2NC(=O)c3ccccc3N2)ccc1OCCCCCOc1c(OC)cc(C2=NOC(c3cc(OC)c(OC)c(OC)c3)C2)cc1OC (stereo not drawn) : -0.26

Value of measured log10 of TGI for the entry `O=C1c2cc(Cl)ccc2S(=O)(=O)c2c(NCCCNCCO)nc3ccccc3c21` : 0.81

Value of measured log10 of TGI for the entry C=C1C(=O)O[C@@]23C1CC[C@@H](C)C2CC[C@@]1(C)OC31 (stereo partly drawn) : 1.09

###

# System: SK-OV-3 ovarian
# ASSAY NOTES: NCI tumour cell line growth inhibition, 48 h; in the data active means GI50 below about 0.43 µM; inactive means the rest
The categories you may choose from are active, inactive

Worked examples, 5 compounds total:
# COMPOUND, CATEGORY
measured = [
    ("O=C1CCCCN1CCCCC#Cc1ccccc1C#Cc1ccc([N+](=O)[O-])cc1", "inactive"),
    ("CC(C)(C)OC(=O)N1CCc2c(sc3ncnc(N/N=C/c4cccc5ccccc45)c23)C1", "inactive"),
    ("CS(=O)(=O)c1ccc([C@H]2O[C@@H](CO)C[C@]2(O)c2ccc(S(C)(=O)=O)cc2)cc1", "inactive"),
    ("O=C1Nc2c(C(F)(F)F)cccc2[C@]1(c1ccc(O)cc1)c1ccc(OC(F)(F)F)cc1", "inactive"),
    ("CCC[CH2][Sn]([CH2]CCC)([O]C(=O)c1cccnc1SC)[O]C(=O)c1cccnc1SC", "inactive"),
]

Please let me know the test result on file for `CCN(CC)c1ccc(/C=C/c2ccc3cc(C)ccc3[n+]2CC)cc1` .
active

Please let me know the test result on file for `C=CCCCCCCCCC(=O)[O][Sn]([CH2]CCC)([CH2]CCC)[CH2]CCC` .
active

Please let me know the test result on file for COc1cc(C2NC(=O)c3ccccc3N2)ccc1OCCCCCOc1c(OC)cc(C2=NOC(c3cc(OC)c(OC)c(OC)c3)C2)cc1OC (centres undefined) .
inactive

Please let me know the test result on file for COc1cc([N+](=O)[O-])cc2c3c(n(C)c12)[C@@]1(C)CCC2c4ccc(OCc5ccccc5)cc4CCC2C1C3 (some centres undefined) .
inactive
